system: Fer (mouse); experiment: phosphorylation enrichment, bacterial display (enrichment ratio); higher = better substrate or ligand; peptides without Tyr show the background;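 also: 11-residue human phosphosite peptides and single-mutation variants displayed on the E. coli surface, counted by deep sequencing, each peptide's frequency after selection divided by its frequency in the unselected input library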;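 also: frequency after pTyr selection over input frequency; kinase dosed for 20-30% of maximal phosphorylation in three min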
quantity_name: phosphorylation enrichment
Answers are plain numbers.

Recorded results for 5 sequences are shown here.
YKEQGYHRLPS [RIN1_Y681_P686S]; 0.363
AAETTYDKILK [GDNF_Y156]; 0.474
EEQKKYYNAVK [SCN5A_Y1494_M1498V]; 0.393
ATKNDYWAMLA [WWOX_Y287_P282A]; 0.452
SVTCTYSPAIN [TP53_Y126_L130I]; 0.743

Could you tell me phosphorylation enrichment for each of these sequences? They are listed below.
1. HNMPIYEGYAL [ACTA1_Y168_V165M]
2. EWLRRHLENGK [HLA-A_Y195_Y195H]
3. LTVVIYVLVGR [EPHA3_Y561_I564V]
4. NKPTVCGVSPN [ABL1_Y226_Y226C]
5. LNPFIYSLRNW [OR1A2_Y288]
6. FSKTQYNQVPS [CXADR_Y318_YF]
7. RIVEIYSRRLR [GCH1_Y175_Q180R]

## Output
1: 17.4; 2: 0.34; 3: 0.348; 4: 0.441; 5: 2.28; 6: 0.551; 7: 1.15

Could you tell me phosphorylation enrichment for each of these sequences? They are listed below.
1. TYEPNYGTVKR [RAPGEF6_Y1447_Q1452R]
2. QRIHDYYEHRY [HCN4_Y554]

## Output
1.65
0.903

====

tested on: c-Src; assay: phosphorylation enrichment, bacterial display (enrichment ratio); higher = better substrate or ligand; peptides without Tyr show the background
# label = met if phosphorylation enrichment >= 1 else not met

Previously resolved entries follow.
ITGNGYYFRVF [MYBPC3_Y1135_I1131T]; not met
LFDPDFMKVIL [CYP4A22_Y104_Y104F_YF]; met
YKEQGYHRLPS [RIN1_Y681_P686S]; not met
NKPTVCGVSPN [ABL1_Y226_Y226C]; not met
PDMHSYVVRYN [GRIN2D_Y732_M733V]; not met
PPKFFYTRKLL [CYBB_Y41]; not met

## Input Form field: phosphorylation enrichment at least 1? Entry: VCDSDYSASRW [LRP5_Y1552]
## Output not met

## Input Form field: phosphorylation enrichment at least 1? Entry: PQAVTYATVKH [LILRB4_Y360_K362T]
## Output met

## Input Form field: phosphorylation enrichment at least 1? Entry: DAMQTYNGNDE [TSPAN7_Y131]
## Output not met

## Input Form field: phosphorylation enrichment at least 1? Entry: AVLSLCASGRT [ACTA2_Y145_Y145C]
## Output not met

## Input Form field: phosphorylation enrichment at least 1? Entry: CRVEPYGENFN [APOA4_Y310_R305C]
## Output not met

## Input Form field: phosphorylation enrichment at least 1? Entry: YKWAVYCIIGR [NUP93_Y391_R388W]
## Output met

## Input Form field: phosphorylation enrichment at least 1? Entry: CLAKMYFSAVD [CP_Y539_YF]
## Output not met

## Input Form field: phosphorylation enrichment at least 1? Entry: LSIWPYLQKID [MFSD8_Y63_M58L]
## Output not met

## Input Form field: phosphorylation enrichment at least 1? Entry: INNIDYYKNTT [FGFR2_Y656_K659N]
## Output not met

## Input Form field: phosphorylation enrichment at least 1? Entry: SLMGCYNLTFM [HS6ST3_Y323_V320M]
## Output not met

## Input Form field: phosphorylation enrichment at least 1? Entry: SDMGQYQCLVF [AXL_Y115_T112M]
## Output met
